Hey, just so you know, these numbers are from the SangsterLogP compilation.

MEASUREMENT PROTOCOL: method code SF-AS, from Dai, Y.; Jiang, J.; Wang, Z.; Xue, Q. (2007). Experimental and QPSR studies on octanol-water partition coefficient of substituted anilines. J. Struct. Chem, 26(12)1449-1454.
READOUT KIND: logP
Give bare numbers.

Q. State its logP for this molecule: "CCN(CC)c1ccccc1"
A. 3.11

###

Kindly state logD for each of the entries shown.
MEASUREMENT PROTOCOL: method code SF-AS, from DOI: 10.1135/cccc19881862
ASSAY CONTEXT: pH 3.5
One number for each entry.

Example cases with answers are listed next.
| MOLECULE | logD |
| --- | --- |
| CC(CC(=O)c1ccc(-c2ccc(-c3ccccc3)cc2)cc1)C(=O)O (stereo not drawn) | 3.4 |
| CC(CC(=O)c1ccc(-c2ccc(-c3ccc(F)cc3F)cc2)cc1)C(=O)O (stereo not drawn) | 3.78 |

Now let's try a different one.
Q. State its logD for this molecule: CC(CC(=O)O)CC(=O)c1ccc(-c2ccc(-c3ccccc3)cc2)cc1 (stereo not drawn)
A. 3.82
